Tested system: human enzyme NAMPT (full length) (Homo sapiens)
Construct: human enzyme NAMPT (full length)
Experimental protocol: NMN fluorescence biochemical assay (stimulation of NMN synthesis by NAMPT)
Experimental setup: NMN fluorescence assay, purified human NAMPT 100 nM; concentration giving half-maximal activation; read-out: Enzymatic EC50
Experimental: Certain compounds described herein were assayed for their ability to stimulate the synthesis of nicotinamide mononucleotide (NMN) by human enzyme NAMPT (full length). […] Fluorescence (Ex/Em=382/445 nm) was measured using an Envision plate reader. The potency measurements for the test compounds were quantified and represented as EC50 (concentration of a compound that gives half-maximal activation) and Emax (fold change of a compound's maximal activation compared to DMSO).
pEC50: −log10 of the molar value.
Below, each of the compounds is paired with its reported pEC50 value.
Value type: pEC50

>  <Compound>
COc1cc(CN2C(=O)c3ccccc3C2Cc2c(Cl)cnn2C)on1 (centres unmarked)

>  <Experimental value>
≤ 5.30

$$$$
>  <Compound>
COc1ccc(CN2C(=O)c3ncsc3C2Cc2c(Cl)cnn2C)cc1 (centres unmarked)

>  <Experimental value>
≤ 5.30

$$$$
>  <Compound>
Cn1ncc(Cl)c1CC1c2ccccc2C(=O)N1C/C=C/c1nn[nH]c1F (centres unmarked)

>  <Experimental value>
> 6.30

$$$$
>  <Compound>
Cn1ncc(Cl)c1CC1c2cc(Cl)ncc2C(=O)N1CC1CC2(CNC(=O)O2)C1 (centres unmarked)

>  <Experimental value>
≤ 5.30

$$$$
>  <Compound>
O=C1c2ccccc2C(Cc2ncccc2Br)N1Cc1ccc(=O)[nH]c1 (centres unmarked)

>  <Experimental value>
5.30 to 6.30

$$$$

====

Tested system: human enzyme NAMPT (full length) (Homo sapiens, UniProt P43490)
Construct: human enzyme NAMPT (full length)
Sequence (P43490 whole entry): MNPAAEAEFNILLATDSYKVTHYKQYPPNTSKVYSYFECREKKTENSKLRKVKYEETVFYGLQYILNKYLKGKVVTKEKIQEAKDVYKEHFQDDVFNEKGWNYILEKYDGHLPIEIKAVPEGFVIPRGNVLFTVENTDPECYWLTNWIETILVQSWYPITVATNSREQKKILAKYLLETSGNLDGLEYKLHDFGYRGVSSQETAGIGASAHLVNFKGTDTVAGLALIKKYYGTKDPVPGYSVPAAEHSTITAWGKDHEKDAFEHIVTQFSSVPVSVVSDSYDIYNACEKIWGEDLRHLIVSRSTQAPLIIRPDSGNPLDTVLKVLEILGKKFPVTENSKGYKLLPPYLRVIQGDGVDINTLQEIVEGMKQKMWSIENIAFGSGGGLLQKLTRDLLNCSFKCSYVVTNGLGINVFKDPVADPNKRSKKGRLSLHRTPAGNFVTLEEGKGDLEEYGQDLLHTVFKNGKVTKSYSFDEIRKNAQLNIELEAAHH
Experimental protocol: NMN fluorescence biochemical assay (stimulation of NMN synthesis by NAMPT)
Experimental setup: NMN fluorescence assay, purified human NAMPT 100 nM; concentration giving half-maximal activation; read-out: Enzymatic EC50
Experimental: Certain compounds described herein were assayed for their ability to stimulate the synthesis of nicotinamide mononucleotide (NMN) by human enzyme NAMPT (full length). […] Fluorescence (Ex/Em=382/445 nm) was measured using an Envision plate reader. The potency measurements for the test compounds were quantified and represented as EC50 (concentration of a compound that gives half-maximal activation) and Emax (fold change of a compound's maximal activation compared to DMSO).

>  <Molecule>
Cn1ncc(Cl)c1CC1c2ccccc2C(=O)N1Cc1n[nH]c(=O)o1 (stereo not drawn)

>  <Tested system>
human enzyme NAMPT (full length) (Homo sapiens, UniProt P43490)

>  <EC50>
≥ 5 µM

$$$$
>  <Molecule>
COc1cnc(CN2C(=O)c3ccccc3C2Cc2c(Cl)cnn2C)cc1F (stereo not drawn)

>  <Tested system>
human enzyme NAMPT (full length) (Homo sapiens, UniProt P43490)

>  <EC50>
≥ 5 µM

$$$$
>  <Molecule>
Cn1ncc(Cl)c1CC1c2ccccc2C(=O)N1C[C@@H]1C[C@H]1c1c[nH]nn1 (relative stereo)

>  <Tested system>
human enzyme NAMPT (full length) (Homo sapiens, UniProt P43490)

>  <EC50>
0.5 to 5 µM

$$$$
>  <Molecule>
Cc1nn(C)c(CC2c3ccccc3C(=O)N2CC2CC3(CNC(=O)O3)C2)c1Cl (stereo not drawn)

>  <Tested system>
human enzyme NAMPT (full length) (Homo sapiens, UniProt P43490)

>  <EC50>
< 0.5 µM

$$$$
>  <Molecule>
Cn1nc(Cl)c(Cl)c1CC1c2ccccc2C(=O)N1C[C@H]1C[C@@]2(CNC(=O)O2)C1 (stereo partly drawn) [Compound 500]

>  <Tested system>
human enzyme NAMPT (full length) (Homo sapiens, UniProt P43490)

>  <EC50>
0.5 to 5 µM

$$$$
>  <Molecule>
Cn1ncc(Cl)c1CC1c2cccc(F)c2C(=O)N1Cc1ccc2[nH]nnc2c1 (stereo not drawn)

>  <Tested system>
human enzyme NAMPT (full length) (Homo sapiens, UniProt P43490)

>  <EC50>
< 0.5 µM

$$$$

====

Tested system: human enzyme NAMPT (full length) (Homo sapiens, UniProt P43490)
Construct: human enzyme NAMPT (full length)
Experimental protocol: NMN fluorescence biochemical assay (stimulation of NMN synthesis by NAMPT)
Experimental setup: fold change of maximal activation compared to DMSO
Value type: Enzymatic Emax

>  <Compound>
Cc1[nH]nnc1/C=C/CN1C(=O)c2ccccc2C1Cc1ncccc1Br (centres unmarked) [Compound 386]

>  <Value type>
Enzymatic Emax

>  <Experimental value>
B (3≥B>2)

$$$$
>  <Compound>
O=C1c2ccccc2C(Cc2ncccc2Br)N1Cc1cc(F)c2[nH]nnc2c1 (centres unmarked) [Compound 329]

>  <Value type>
Enzymatic Emax

>  <Experimental value>
B (3≥B>2)

$$$$
>  <Compound>
Cn1ncc(Cl)c1CC1c2cc(C3CNC3)ccc2C(=O)N1Cc1ccc2[nH]nnc2c1 (centres unmarked) [Compound 383]

>  <Value type>
Enzymatic Emax

>  <Experimental value>
B (3≥B>2)

$$$$
>  <Compound>
Cn1ncc(Cl)c1CC1c2ccccc2C(=O)N1Cc1ccc2c(c1)nnn2C (centres unmarked) [Compound 557]

>  <Value type>
Enzymatic Emax

>  <Experimental value>
A (A>3)

$$$$
>  <Compound>
Cc1nn(C)c(C#N)c1CC1c2ccccc2C(=O)N1Cc1ccc2[nH]nnc2c1 (centres unmarked) [Compound 341]

>  <Value type>
Enzymatic Emax

>  <Experimental value>
A (A>3)

$$$$
>  <Compound>
O=C1c2ccccc2CCN1Cc1ccc(O)cc1 [Compound 2]

>  <Value type>
Enzymatic Emax

>  <Experimental value>
A (A>3)

$$$$
>  <Compound>
Cn1ncc(Cl)c1CC1c2ccccc2C(=O)N1Cc1cnc(O)o1 (centres unmarked) [Compound 605]

>  <Value type>
Enzymatic Emax

>  <Experimental value>
A (A>3)

$$$$

====

Tested system: human enzyme NAMPT (full length) (Homo sapiens)
Construct: human enzyme NAMPT (full length)
Experimental protocol: NMN fluorescence biochemical assay (stimulation of NMN synthesis by NAMPT)
Experimental setup: fold change of maximal activation compared to DMSO

>  <Compound>
O=C1COc2ccccc2N1Cc1ccc(O)cc1 [Compound 6]

>  <Enzymatic Emax>
B (3≥B>2)

$$$$
>  <Compound>
O=C1CCc2ccccc2N1Cc1ccc(O)cc1 [Compound 3]

>  <Enzymatic Emax>
B (3≥B>2)

$$$$
>  <Compound>
Cc1ccccc1CC1c2ncccc2C(=O)N1Cc1ccc2[nH]c(=O)oc2c1 (centres unmarked) [Compound 151]

>  <Enzymatic Emax>
A (A>3)

$$$$
>  <Compound>
Cc1cccnc1CC1c2ccccc2C(=O)N1Cc1ccc2[nH]c(=O)oc2c1 (centres unmarked) [Compound 176]

>  <Enzymatic Emax>
A (A>3)

$$$$

====

Test system: endogenous NAMPT in U2OS cells
Experimental protocol: Cellular NAD+ modulation assay (NAD/NADH-Glo, U2OS cells)
Type: cell-based
Experimental setup: Homo sapiens, 24 hours incubation, cellular NAD+

>  <Compound>
COc1ccc(CN2C(=O)c3c(F)cc(Cl)cc3C2Cc2c(Cl)cnn2C)cc1 (stereo not shown)

>  <EC50>
500 to 5000 nM

$$$$
>  <Compound>
Cn1ncc(Cl)c1CC1c2cc(F)ccc2C(=O)N1Cc1ccc2[nH]nnc2c1 (stereo not shown)

>  <EC50>
< 500 nM

$$$$
>  <Compound>
Cn1nc(OC(F)F)c(Cl)c1CC1c2ccccc2C(=O)N1Cc1ccc2[nH]nnc2c1 (stereo not shown)

>  <EC50>
< 500 nM

$$$$
>  <Compound>
[2H]C([2H])(c1c(Cl)cnn1C)C1c2ccccc2C(C)(C)N1CC1CC2(CNC(=O)O2)C1 (stereo not shown)

>  <EC50>
< 500 nM

$$$$

====

Tested system: human enzyme NAMPT (full length) (Homo sapiens)
Construct: human enzyme NAMPT (full length)
Experimental protocol: NMN fluorescence biochemical assay (stimulation of NMN synthesis by NAMPT)
Experimental setup: NMN synthesis by purified human NAMPT (100 nM); concentration giving half-maximal activation; read-out: Enzymatic EC50
Below, each entry is listed with its recorded EC50.

>  <Molecule>
O=C1c2ccccc2C(Cc2nccc(F)c2Br)N1Cc1ccc2[nH]c(=O)oc2c1 (stereo not drawn)

>  <EC50>
< 500 nM

$$$$
>  <Molecule>
CC1c2cc(CN3CC4(CNC4)C3)ccc2C(=O)N1Cc1ccc2[nH]c(=O)oc2c1 (stereo not drawn)

>  <EC50>
≥ 5000 nM

$$$$
>  <Molecule>
O=C1c2ccccc2C(Cc2ccccc2Cl)N1Cc1ccc2[nH]c(=O)oc2c1 (stereo not drawn)

>  <EC50>
< 500 nM

$$$$
>  <Molecule>
Cc1ccc2c(c1)C(C)N(Cc1ccc3[nH]c(=O)oc3c1)C2=O (single isomer, unassigned)

>  <EC50>
≥ 5000 nM

$$$$
>  <Molecule>
O=C1c2ccc(N3CCOCC3)cc2C(Cc2ccccc2)N1Cc1ccc2[nH]c(=O)oc2c1 (stereo not drawn)

>  <EC50>
500 to 5000 nM

$$$$
>  <Molecule>
N#Cc1cccc(Cl)c1CC1c2ccccc2C(=O)N1Cc1ccc2[nH]c(=O)oc2c1 (stereo not drawn)

>  <EC50>
< 500 nM

$$$$
